Hey, just so you know, these numbers are from PubChem BioAssay.

Measurement target: Epidermal growth factor receptor (Homo sapiens) (UniProt P00533)
Sequence (P00533 whole entry, looked up): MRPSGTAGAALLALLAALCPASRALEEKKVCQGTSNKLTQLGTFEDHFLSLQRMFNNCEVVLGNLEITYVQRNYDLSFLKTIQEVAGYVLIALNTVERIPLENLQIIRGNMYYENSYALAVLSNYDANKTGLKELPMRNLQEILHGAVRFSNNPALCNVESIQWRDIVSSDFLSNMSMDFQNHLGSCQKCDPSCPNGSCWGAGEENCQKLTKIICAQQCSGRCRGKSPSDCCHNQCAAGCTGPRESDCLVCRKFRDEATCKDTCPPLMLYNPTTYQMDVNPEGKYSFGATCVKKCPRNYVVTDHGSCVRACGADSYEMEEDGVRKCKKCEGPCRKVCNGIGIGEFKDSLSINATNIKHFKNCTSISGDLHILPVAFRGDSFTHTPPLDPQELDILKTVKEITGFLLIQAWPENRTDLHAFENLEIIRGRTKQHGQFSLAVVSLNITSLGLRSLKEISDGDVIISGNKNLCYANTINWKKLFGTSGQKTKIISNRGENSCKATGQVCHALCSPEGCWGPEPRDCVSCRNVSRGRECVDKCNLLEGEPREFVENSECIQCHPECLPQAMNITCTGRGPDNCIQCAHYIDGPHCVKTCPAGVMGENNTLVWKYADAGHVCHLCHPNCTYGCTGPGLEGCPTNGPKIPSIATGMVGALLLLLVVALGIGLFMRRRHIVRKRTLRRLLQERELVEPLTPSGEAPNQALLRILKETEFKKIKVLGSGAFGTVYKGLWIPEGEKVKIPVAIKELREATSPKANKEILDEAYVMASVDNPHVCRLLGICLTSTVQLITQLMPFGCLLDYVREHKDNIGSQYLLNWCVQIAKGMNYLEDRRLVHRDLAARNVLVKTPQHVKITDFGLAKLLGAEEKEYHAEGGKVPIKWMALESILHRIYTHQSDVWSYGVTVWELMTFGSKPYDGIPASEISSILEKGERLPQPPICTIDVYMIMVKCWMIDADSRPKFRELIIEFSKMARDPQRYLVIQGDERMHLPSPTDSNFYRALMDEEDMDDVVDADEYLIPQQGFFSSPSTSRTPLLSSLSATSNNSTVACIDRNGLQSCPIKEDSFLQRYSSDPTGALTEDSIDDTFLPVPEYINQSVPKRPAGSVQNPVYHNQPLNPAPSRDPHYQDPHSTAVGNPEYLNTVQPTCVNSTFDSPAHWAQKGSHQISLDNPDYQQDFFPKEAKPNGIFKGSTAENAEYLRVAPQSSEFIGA
Experiment description: compounds binding epidermal growth factor receptor – biochemical, small-molecule microarray, 635 nm fluorescence, primary screen (AID 1104);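 note: score merges 667 nm emission intensity with spot signal to noise over triplicate slides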
Condition details: EGFR binding, higher = more signal
composite z-score below 0.4 gives Not fulfilled; composite z-score at or above it gives Fulfilled.

Q: composite z-score >= 0.4 for "COC(=O)c1c(CC[C@@H](CO)NC(=O)N2CCC[C@H]2Cn2cc(C3(O)CCCCC3)nn2)oc(C(C)=O)c1C(=O)OC" ?
A: Not fulfilled

----------
Experiment description: probe aNog binding to arrayed compounds – biochemical, biotinylated probe, 635/667 nm fluorescence, primary screen (AID 1115);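 note: probe is biotinylated aNog protein used at 0.15 µg/mL for 1 h at 4 C; z-score combines 667 nm fluorescence of each spot with its signal to noise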
Condition details: small-molecule microarray, higher = more signal
Reported metric: composite z-score
I only need the number, thanks.

See these solved cases before continuing.
Molecule	Reported metric	Assay value
COC(=O)C1=CC(CCCO)=CC(c2cccs2)N(Cc2cccc(OC(F)(F)F)c2)C=C1C(=O)OC (configuration not stated)	composite z-score	0.145
CC(=O)NCCCC[C@@H]1NC(=O)[C@@H]2C[C@H](C(=O)NCCCCCN)[C@H](c3cccc(OCCO)c3)N2C1=O	composite z-score	0.489
COc1ccc([C@H]2OC[C@@H]3C[C@H](Cc4ccccc4)C(=O)N32)cc1	composite z-score	-0.113
CC#CCO[Si](C#Cc1ccccc1)(C(C)C)C(C)C	composite z-score	-0.281
O=C1O[C@@H](c2ccccc2)[C@@H](c2ccccc2)N2[C@@H](c3ccc(OCCO)cc3)[C@]3(C(=O)Nc4ccc(C#CC5=CCCCC5)cc43)[C@@H](C(=O)NC[C@H](O)c3ccccc3)[C@H]12	composite z-score	1.74
CCOC(=O)C[C@H]1[C@H](OC(=O)c2cc3ccccc3oc2=O)[C@@H](NC(=O)CC(C)C)c2cc(OCCCO)ccc2N1C(=O)c1ccc2ccccc2n1	composite z-score	-0.143

Next, consider the following molecule.
Q: What value of composite z-score has been recorded for this entry: CC(CO)N1C(=O)[C@]2(C)C3C(=O)OCCC/C=C\[C@H]3OC23C=CCN(c2ccc(Cl)cc2)C(=O)[C@@H]13 (some centres not stated)
A: -0.318

----------
Experiment description: viability profiling in RPMI8226 myeloma cells – cell-based, resazurin fluorescence, basal, 24 h, PK04 Diversity Set, profiling panel (AID 1180);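 note: RPMI8826 multiple myeloma cell line at 5000 cells per well; test concentration not given here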
Condition details: higher = more signal
z-score below -1 gives no; z-score at or above it gives yes.

Q: z-score >= -1 for "CCOC(=O)C[C@H]1[C@H](OC(=O)Cc2ccc3c(c2)OCO3)[C@@H](NC(=O)c2ccc3ccccc3n2)c2cc(OCCCO)ccc2N1C(=O)c1ccc2ccccc2n1" ?
A: yes

----------
Experiment description: probe aCHRDL2 binding to arrayed compounds – biochemical, biotinylated probe, 635/667 nm fluorescence, primary screen (AID 1100)
Condition details: small-molecule microarray, higher = more signal
The molecules listed here are annotated with their composite z-score.
I only need the number, thanks.

Molecule	composite z-score
CC(=O)N1CC2(CC2)CC1c1ccccc1 (centres undefined)	-0.0067
O=C1OCCC=C[C@H]2OC34C=CCN(c5ccc6ccccc6c5)C(=O)[C@H]3N(CCCO)C(=O)[C@@H]4C12 (some centres undefined)	0.637
COCCOC(=O)N1C(=O)[C@@]2(c3cc(C#CCCO)ccc31)[C@H](c1ccc(OCCO)cc1)N1[C@H](c3ccccc3)[C@H](c3ccccc3)OC(=O)[C@H]1[C@@H]2C(=O)Nc1nc2ccccc2s1	0.771

Next, consider the following molecule.
Q: What value of composite z-score has been recorded for this entry: CC(c1ccccc1)C(O)C1C=CC2C(=O)N(C)C(=O)C2N1Nc1ccccc1 (centres undefined)
A: 1.2

----------
The compounds listed here are annotated with their z-score.
Experiment description: inhibition of PAO1 biofilm formation – strain PAO1, LB-PBS medium, absorbance 600 nm, primary screen (AID 1176); note: test concentration not given here
Condition details: P. aeruginosa PAO1 growth/biofilm, A600, 12 h; higher = more signal
Calls of active or inactive are those of the source. How the calls were made is not given here.

Q: What value of z-score has been recorded for this entry: CCCCCN1CC=CC23O[C@@H]4/C=C\CCC(C)OC(=O)C4[C@H]2C(=O)N(C(CO)C(C)C)[C@@H]3C1=O (stereo partly specified)
A: 0.193 (inactive)

Q: Consider next the compound "CN(C)C(=O)[C@]1(CCC(=O)OC(C)(C)C)N=C(c2ccc(OCCCO)cc2)O[C@@H]1c1ccccc1CN=[N+]=[N-]" in the same way.
A: -0.36 (inactive)

----------
Experiment description: probe aLefty2 binding to arrayed compounds – biochemical, biotinylated probe, 635/667 nm fluorescence, primary screen (AID 1094);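 note: score merges spot fluorescence near 667 nm with spot signal-to-noise ratio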
Condition details: small-molecule microarray, higher = more signal
The molecules listed here are annotated with their composite z-score.
I only need the number, thanks.

See these solved cases before continuing.
Molecule	composite z-score
COC(=O)[C@@]1(Cc2ccc(OC)cc2)[C@H]2c3cc(C(=O)N4CCCC4)n(CCO)c3C[C@H]2CN1C(=O)c1ccccc1	0.159
COCCOC(=O)N1C(=O)[C@@]2(c3ccccc31)[C@H](C(=O)NC[C@H](O)c1ccccc1)[C@H]1C(=O)O[C@H](c3ccccc3)[C@H](c3ccccc3)N1[C@@H]2c1ccc(O)cc1	-0.109
CC[C@@H]1C=C(C(=O)O)[C@H](c2ccc(C#N)cc2)N1S(=O)(=O)c1ccc(C)cc1	0.283
Cc1ccc(S[C@]2(C(=O)NCC(F)(F)F)CC(=O)N(Cc3cc(C(F)(F)F)cc(C(F)(F)F)c3)[C@@H]2c2ccc(CO)cc2I)cc1	-0.054
CC(C)[Si](C#C[Si](C(C)C)(C(C)C)C(C)C)(O[C@H](c1ccccc1)c1cn(Cc2ccccc2)nn1)C(C)C	-0.028
C=CCC(OC(C)=O)[C@@H]1[C@@H](N(Cc2ccc(-c3cccc(C(F)(F)F)c3)o2)C(=O)c2ccc(-c3ccccc3)cc2)c2cc(OCCCO)ccc2N1C(=O)Cc1ccc2ccccc2c1 (some centres not stated)	-0.0928

Next, consider the following molecule.
Q: What value of composite z-score has been recorded for this entry: "COc1ccc([Si](C)(C)[C@H]2[C@H](CC(=O)N3CCC[C@H]3CO)O[C@@]3(C(=O)N(Cc4ccc(N5CCOC5=O)cc4)c4ccccc43)[C@@H]2C)cc1"
A: -0.0063

----------
Experiment description: optical density change of DRC41 E. coli – strain DRC41, OD650, 24 h, E. coli filamentation project, primary screen (AID 1093);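 note: MC1000 strain lacking acrAB efflux and sulA so SOS filamentation is blocked; test concentration not given here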
Condition details: E. coli DRC41 growth, higher = more signal, called active from +8 up or from −8 down
z-score below 0.3 gives n; z-score at or above it gives y.

// known answers, use as guide
Compound	Assigned class
CC1CC/C=C\[C@H]2OC34C=CCN(C(C)C)C(=O)[C@H]3N(CCO)C(=O)[C@@H]4C2C(=O)O1 (stereo not given in full)	y
COC(=O)C1=CC(CCCO)=CC(c2ccc(CN3CCCC3)cc2)N(Cc2cccc(OC(F)(F)F)c2)C=C1C(=O)OC (stereo not given)	n
COc1cc(OC)c(C(O)C2C=CC3C(=O)N(Cc4ccccc4)C(=O)C3N2n2cnnc2)cc1Br (stereo not given)	n
CCCCCN1CC=CC23O[C@@H]4C=CCCOC(=O)C4[C@H]2C(=O)N(CCCCCCO)[C@@H]3C1=O (stereo not given in full)	y
CCOC(=O)C[C@H]1[C@H](OC(=O)c2ccccc2-c2ccccc2)[C@@H](NC(=O)c2ccc3ccccc3n2)c2cc(OCCCO)ccc2N1C(=O)Cc1ccc(OC)cc1	n
O=C(NCc1ccc(F)cc1)[C@H]1C[C@H]2C(=O)NCC(=O)N2[C@H]1c1ccc(O)cc1	y

Q: z-score >= 0.3 for "CCOC(=O)C[C@H]1[C@H](OC(=O)c2ccc(-c3ccccc3)cc2)[C@@H](NC(=O)CC(C)C)c2cc(OCCCO)ccc2N1C(=O)c1ccc2ccccc2n1" ?
A: n

Q: Consider next the compound CC(C)C(CO)N1C(=O)[C@@H]2C3C(=O)OCCC/C=C\[C@H]3OC23C=CCN(Cn2nnc4ccccc42)C(=O)[C@@H]13 (stereo not given in full) in the same way.
A: n

Q: Consider next the compound "CCOC(=O)C[C@H]1[C@H](OC(=O)Cc2ccc3c(c2)OCO3)[C@@H](NC(=O)C2CCCCC2)c2cc(OCCCO)ccc2N1C(=O)c1ccccc1" in the same way.
A: y

----------
Experiment description: ATP-based viability of Huh7 replicon cells – cell-based, CellTiter-Glo luminescence, basal, 48 h, cytotoxicity control for HCV replication inhibitor project, primary screen (AID 1143);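 note: Huh7 hepatoma cells carrying a hepatitis C replication reporter with no stimulus; test concentration not given here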
Condition details: higher = more signal, called active from +8 up or from −8 down
The compounds listed here are annotated with their z-score.
I only need the number, thanks.

Compound	Assay value
COc1ccc([Si](C)(C)[C@@H]2[C@@H](CC(=O)N3Cc4ccccc4C[C@H]3CO)O[C@]3(C(=O)N(Cc4ccc(N5C(=O)c6cccc7cccc5c67)cc4)c4ccccc43)[C@H]2C)cc1	-2.28
CCOC(=O)C[C@H]1[C@H](OC(=O)Cc2ccc3c(c2)OCO3)[C@@H](NC(=O)C2CCCCC2)c2cc(OCCCO)ccc2N1C(=O)c1ccccc1	-0.0136
COc1ccc(C#Cc2ccc3c(c2)[C@]2(C(=O)N3)[C@H](c3ccc(O)cc3)N3[C@H](c4ccccc4)[C@H](c4ccccc4)OC(=O)[C@H]3[C@@H]2C(=O)Nc2nc3ccccc3s2)cc1	-1.62
COCC(=C=CC[C@H](O)c1ccccc1OCCO)C[C@H](O)c1ccccn1	-0.0701
C=CCC(OC(C)=O)[C@@H]1[C@@H](N(Cc2ccc(-c3cccc(C(F)(F)F)c3)o2)C(=O)c2ccc(-c3ccccc3)cc2)c2cc(OCCCO)ccc2N1C(=O)Cc1ccc2ccccc2c1 (stereo partly drawn)	-0.165
C=CC[C@]1(C(=O)N2CCCCC2)N=C(c2ccc(OCCCO)cc2)O[C@H]1c1ccccc1CN=[N+]=[N-]	-4.07

Q: What value of z-score has been recorded for this entry: CCCCCN1CC=CC23O[C@@H]4C=CCCOC(=O)C4[C@H]2C(=O)N(CCCCCCO)[C@@H]3C1=O (stereo partly drawn)
A: -0.181

Q: Consider next the compound "CCCCC=C[C@@H](NC(=O)OCc1ccccc1Cl)c1ccccc1" in the same way.
A: -0.392

Q: Consider next the compound CN1C2C=C(CCCO)C(C3C(=O)N(C(N)=O)C(=O)C32)C1C1CC1 (stereo not drawn) in the same way.
A: -0.122

Q: Consider next the compound "COc1ccc(C(=O)Nc2ccc(CN3C(=O)[C@]4(O[C@H](CC(=O)N5Cc6ccccc6C[C@H]5CO)[C@@H]([Si](C)(C)c5ccc(OC)cc5)[C@@H]4C)c4ccccc43)cc2)cc1" in the same way.
A: -3.81

Q: Consider next the compound "O=C(NCCN1CCOCC1)[C@@H]1c2ccccc2C(=O)N(Cc2ccccc2Cl)[C@H]1c1ccc(CO)cc1" in the same way.
A: -0.276

Q: Consider next the compound "CC[C@@H]1C=C(C(=O)O)[C@H](c2ccccc2)N1S(=O)(=O)c1ccc(C)cc1" in the same way.
A: -0.272
